molecules and their reported Dmax
biological target: VAV1 (Homo sapiens, UniProt P15498+Q96SW2); construct: A heterozygous VAV1 C-terminal HiBiT knock-in pool was generated at Monte Rosa Therapeutics from a clonal Jurkat cell; endogenous in cells; host or cells: Jurkat clone stably expressing LgBiT, homozygous GSPT1-G575N; heterozygous VAV1-HiBiT knock-in pool; assay: VAV1 degradation activity, VAV1-HiBiT knock-in Jurkat luminescence assay (Example A, Table 1); type: cell-based; details: Jurkat, VAV1-HiBiT knock-in Jurkat cells, luminescence read at 6 and 24 hours; read-out: VAV1 Dmax %, class

O=C1CCC(c2cccc(-c3ccc(OC4CCOC4)cc3)c2Cl)C(=O)N1 (centres unmarked) ... 60 to 90%
Cc1cccc(=O)n1-c1ccc(-c2cccc(C3CCC(=O)NC3=O)c2Cl)cc1 (centres unmarked) ... > 90%
O=C1CCC(c2cccc(-c3ccc(N4CCC5CC5C4=O)cc3)c2Cl)C(=O)N1 (centres unmarked) ... > 90%
O=C1CCC(c2cccc(-c3ccc(-n4c(F)cccc4=O)nc3)c2Cl)C(=O)N1 (centres unmarked) ... 60 to 90%
O=C1CCC(c2cccc(-c3ccc(N4C(=O)CCCC45COC5)cc3)c2Cl)C(=O)N1 (centres unmarked) ... > 90%
O=C1CCC(c2cccc(-c3ccc(CN4CCc5ocnc5C4=O)cc3)c2Cl)C(=O)N1 (centres unmarked) ... 60 to 90%
CC1CCN(c2ccc(-c3cccc(C4CCC(=O)NC4=O)c3Cl)cc2)C(=O)C1 (centres unmarked) ... > 90%
O=C1CCC(c2c(F)ccc(-c3ccc(Cn4ccccc4=O)cc3)c2Cl)C(=O)N1 (centres unmarked) ... < 60%
CC1CCC(=O)N1Cc1ccc(-c2cccc(C3CCC(=O)NC3=O)c2Cl)cc1 (centres unmarked) ... > 90%
O=C1CCC(c2cccc(-c3ccc(N4CCOCC4=O)cc3)c2Cl)C(=O)N1 (centres unmarked) ... > 90%

Q) Name the reported Dmax value associated with the molecule O=C1CCC(c2cccc(-c3ccc(Cc4nccc(C5COC5)n4)cc3)c2Cl)C(=O)N1 (centres unmarked)
A) > 90%

###

compounds and their reported DC50
biological target: VAV1 (Homo sapiens, UniProt P15498+Q96SW2); construct: A heterozygous VAV1 C-terminal HiBiT knock-in pool was generated at Monte Rosa Therapeutics from a clonal Jurkat cell; endogenous in cells; host or cells: Jurkat clone stably expressing LgBiT, homozygous GSPT1-G575N; heterozygous VAV1-HiBiT knock-in pool; test: VAV1 degradation activity, VAV1-HiBiT knock-in Jurkat luminescence assay (Example A, Table 1); format: cell-based; conditions: VAV1-HiBiT knock-in Jurkat cells, luminescence read at 6 and 24 hours; read-out: VAV1 DC50
State the answer as a number, implicitly in nM.

Here is how some compounds turned out for DC50.
O=C1CCC(c2cccc(-c3ccc(Oc4ncccn4)cc3)c2Cl)C(=O)N1 (stereo not shown) ... 6.85
Cn1ncc2c1CCN(c1ccc(-c3cccc(C4CCC(=O)NC4=O)c3Cl)cc1)C2=O (stereo not shown) ... 7.02
O=C1CCC(c2cccc(-c3ccc(Cc4ncco4)c(F)c3)c2Cl)C(=O)N1 (stereo not shown) ... 7

Now turn to the next compound.
Q) Name the reported DC50 value associated with the compound O=C1CCC(c2cccc(-c3ccc(N4C(=O)C[C@@H]5CCC[C@@H]54)cc3)c2Cl)C(=O)N1 (stereo partly shown)
A) 30.1

###

Target: VAV1 (Homo sapiens, UniProt P15498+Q96SW2)
Construct: A heterozygous VAV1 C-terminal HiBiT knock-in pool was generated at Monte Rosa Therapeutics from a clonal Jurkat cell; endogenous in cells; host or cells: Jurkat clone stably expressing LgBiT, homozygous GSPT1-G575N; heterozygous VAV1-HiBiT knock-in pool
Assay: VAV1 degradation activity, VAV1-HiBiT knock-in Jurkat luminescence assay (Example A, Table 1)
Format: cell-based
Settings: Jurkat, VAV1-HiBiT knock-in Jurkat cells, luminescence read at 6 and 24 hours; read-out: VAV1 Dmax %
Experimental: Cells were plated at 10,000 cells per well using Multiflo (BioTek) or Multi Drop Combi (Thermo Fisher) in 384-well white solid bottom plates (Corning, 3570BC) in 25 ul volume in RPMI 1640 media (Thermo Fischer, 22400105) containing 10% FBS (Corning, 35-075-CV), 1% Penicillin/Streptomycin (ThermoFisher Scientific, 15140-122), and 1% Endurazine (Nano-Glo Endurazine Live Cell Substrate (Promega, N2571)). Cells were incubated for ˜16 hours at 37° C., 5% CO2. […]
Please use TRUE whenever Dmax is not below 90%, and FALSE whenever it is.

O=C1CCC(c2cccc(-c3ccc(Cc4ncccn4)nc3)c2Cl)C(=O)N1 (stereo not shown) [Compound 400] ... FALSE
Cn1ccc(COc2ccc(-c3cccc(C4CCC(=O)NC4=O)c3Cl)cn2)n1 (stereo not shown) [Compound 251] ... FALSE
O=C1CCC(c2cccc(-c3ccc(N4C(=O)CCC45CCC5)cc3)c2Cl)C(=O)N1 (stereo not shown) [Compound 457] ... TRUE

Q) Please check the record Cn1ccc(Cc2nn(C)c3cc(-c4cccc(C5CCC(=O)NC5=O)c4Cl)ccc23)n1 (stereo not shown) [Compound 480] and state if its Dmax is at or above 90%.
A) TRUE

Q) Please do the same for O=C1CCC(c2cccc(-c3ccc(Cc4nccc(C5CC5)n4)cc3)c2Cl)C(=O)N1 (stereo not shown) [Compound 344] as well.
A) TRUE

Q) Please do the same for O=C1CCC(c2cccc(-c3ccc(NC(=O)C4CCOC4)cc3)c2Cl)C(=O)N1 (stereo not shown) [Compound 227] as well.
A) FALSE

###

molecules and their reported DC50
target: VAV1 (Homo sapiens, UniProt P15498+Q96SW2); construct: A heterozygous VAV1 C-terminal HiBiT knock-in pool was generated at Monte Rosa Therapeutics from a clonal Jurkat cell; endogenous in cells; host or cells: Jurkat clone stably expressing LgBiT, homozygous GSPT1-G575N; heterozygous VAV1-HiBiT knock-in pool; assay: VAV1 degradation activity, VAV1-HiBiT knock-in Jurkat luminescence assay (Example A, Table 1); type: cell-based; conditions: VAV1-HiBiT knock-in Jurkat cells, luminescence read at 6 and 24 hours; read-out: VAV1 DC50 (nM), class

O=C1CCC(c2cccc(-c3ccc(Cn4ccc(F)cc4=O)cc3)c2Cl)C(=O)N1 (centres unmarked) [Compound 170] ... ≤ 100 nM
O=C1CCC(c2cccc(-c3ccc(NC(=O)N4CCCC4)cc3)c2Cl)C(=O)N1 (centres unmarked) [Compound 248] ... ≤ 100 nM
O=C1CCC(c2cccc(-c3ccc(CN4Cc5cccnc5C4=O)cc3)c2Cl)C(=O)N1 (centres unmarked) [Compound 299] ... ≤ 100 nM
O=C1CCC(c2cccc(-c3ccc(CN4CCn5nccc5C4=O)cc3)c2Cl)C(=O)N1 (centres unmarked) [Compound 275] ... ≤ 100 nM

Q) Hi! What's the reported DC50 for O=C1CCC(c2cccc(-c3ccc(Cc4ncco4)cc3)c2Cl)C(=O)N1 (centres unmarked) [Compound 472] on VAV1 (Homo sapiens, UniProt P15498+Q96SW2)?
A) ≤ 100 nM

Q) Please do the same for O=C1CCC(c2cccc(-c3ccc(N4Cc5nccn5CC4=O)cc3)c2Cl)C(=O)N1 (centres unmarked) [Compound 328] as well.
A) ≤ 100 nM

Q) Please do the same for CC1CCN(Cc2ccc(-c3cccc(C4CCC(=O)NC4=O)c3Cl)cc2)C(=O)C1 (centres unmarked) [Compound 286] as well.
A) ≤ 100 nM

Q) Please do the same for O=C1CCC(c2cccc(-c3ccc(N4C(=O)OCC45CC5)nc3)c2Cl)C(=O)N1 (centres unmarked) [Compound 356] as well.
A) ≤ 100 nM

Q) Please do the same for Cc1ccnc(Cc2ccc(-c3cccc(C4CCC(=O)NC4=O)c3Cl)cc2)n1 (centres unmarked) [Compound 437] as well.
A) ≤ 100 nM

Q) Please do the same for O=C1CCC(c2cccc(-c3ccc(N4CCN(CC(F)(F)F)CC4=O)cc3)c2Cl)C(=O)N1 (centres unmarked) [Compound 445] as well.
A) ≤ 100 nM

Q) Please do the same for O=C1CCC(c2cccc(-c3ccc(N4C(=O)CC45CCOCC5)cc3)c2Cl)C(=O)N1 (centres unmarked) [Compound 418] as well.
A) > 1000 nM

Q) Please do the same for O=C1CCC(c2cccc(-c3ccc(-n4c(C(F)F)cccc4=O)cc3)c2Cl)C(=O)N1 (centres unmarked) [Compound 238] as well.
A) ≤ 100 nM

###

compounds and their reported Dmax
Molecular target: VAV1 (Homo sapiens, UniProt P15498+Q96SW2)
Construct: A heterozygous VAV1 C-terminal HiBiT knock-in pool was generated at Monte Rosa Therapeutics from a clonal Jurkat cell; endogenous in cells; host or cells: Jurkat clone stably expressing LgBiT, homozygous GSPT1-G575N; heterozygous VAV1-HiBiT knock-in pool
Assay: VAV1 degradation activity, VAV1-HiBiT knock-in Jurkat luminescence assay (Example A, Table 1)
Format: cell-based
Conditions: Jurkat, VAV1-HiBiT knock-in Jurkat cells, luminescence read at 6 and 24 hours; read-out: VAV1 Dmax %
Protocol: Cells were plated at 10,000 cells per well using Multiflo (BioTek) or Multi Drop Combi (Thermo Fisher) in 384-well white solid bottom plates (Corning, 3570BC) in 25 ul volume in RPMI 1640 media (Thermo Fischer, 22400105) containing 10% FBS (Corning, 35-075-CV), 1% Penicillin/Streptomycin (ThermoFisher Scientific, 15140-122), and 1% Endurazine (Nano-Glo Endurazine Live Cell Substrate (Promega, N2571)). Cells were incubated for ˜16 hours at 37° C., 5% CO2. […]
State the answer as a number, implicitly in %.

Here is how some compounds turned out for Dmax.
CC1(C)CN(c2cccc(-c3ccc(CC4CCC(=O)NC4=O)cc3Cl)c2)C(=O)CO1 (centres unmarked) [Compound 268] ... 94.5
O=C1CCC(c2cccc(-c3ccc(CCCn4ccccc4=O)cc3)c2Cl)C(=O)N1 (centres unmarked) [Compound 178] ... 81.1
O=C1CCC(c2cccc(-c3ccc(Cc4cocn4)cc3)c2Cl)C(=O)N1 (centres unmarked) [Compound 442] ... 95.8
O=C1CCC(c2cccc(-c3ccc(N4C(=O)OCC45CC5)cc3)c2Cl)C(=O)N1 (centres unmarked) [Compound 426] ... 96.5
CC1CCCC(=O)N1c1ccc(-c2cccc(C3CCC(=O)NC3=O)c2Cl)cc1 (centres unmarked) [Compound 200] ... 97

Q) Name the reported Dmax value associated with the compound O=C1CCC(c2cccc(-c3cccc(CC4CCC(F)C(=O)N4)c3)c2Cl)C(=O)N1 (centres unmarked) [Compound 270]
A) 89.6

Q) Please do the same for O=C1CCC(c2cccc(-c3ccc(Cn4ccnc4)cc3)c2Cl)C(=O)N1 (centres unmarked) [Compound 140] as well.
A) 83.8

Q) Please do the same for CN1CCCN(Cc2ccc(-c3cccc(C4CCC(=O)NC4=O)c3Cl)cn2)C1=O (centres unmarked) [Compound 432] as well.
A) 71.9
